assay-system: ENaC (Epithelial Sodium Channel) (Mus musculus, UniProt Q61180+Q9WU38+Q9WU39)
Construct: Mouse kidney M-1 cells were cultivated in DMEM containing 5% FCS and 5 μM dexamethasone; endogenous in cells
Sequence (Q61180 whole entry): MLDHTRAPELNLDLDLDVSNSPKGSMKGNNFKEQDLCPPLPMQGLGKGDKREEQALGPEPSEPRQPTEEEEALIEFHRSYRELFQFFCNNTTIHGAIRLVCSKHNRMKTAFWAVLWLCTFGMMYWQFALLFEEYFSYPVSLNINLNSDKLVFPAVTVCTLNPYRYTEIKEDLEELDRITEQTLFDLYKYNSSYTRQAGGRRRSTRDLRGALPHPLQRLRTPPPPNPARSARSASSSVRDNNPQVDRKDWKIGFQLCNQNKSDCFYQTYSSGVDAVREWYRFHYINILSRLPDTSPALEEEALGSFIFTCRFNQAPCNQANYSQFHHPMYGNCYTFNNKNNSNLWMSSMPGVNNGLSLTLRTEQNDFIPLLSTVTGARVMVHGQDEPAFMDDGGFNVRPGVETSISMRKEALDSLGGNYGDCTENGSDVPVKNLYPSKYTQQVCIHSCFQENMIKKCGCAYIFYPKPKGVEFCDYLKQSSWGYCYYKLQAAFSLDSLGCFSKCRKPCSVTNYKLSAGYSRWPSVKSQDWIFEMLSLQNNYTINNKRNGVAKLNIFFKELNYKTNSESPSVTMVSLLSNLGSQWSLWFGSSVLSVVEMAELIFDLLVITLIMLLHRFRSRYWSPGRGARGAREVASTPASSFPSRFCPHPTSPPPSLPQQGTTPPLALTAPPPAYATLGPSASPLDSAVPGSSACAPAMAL
Sequence (Q9WU38 whole entry): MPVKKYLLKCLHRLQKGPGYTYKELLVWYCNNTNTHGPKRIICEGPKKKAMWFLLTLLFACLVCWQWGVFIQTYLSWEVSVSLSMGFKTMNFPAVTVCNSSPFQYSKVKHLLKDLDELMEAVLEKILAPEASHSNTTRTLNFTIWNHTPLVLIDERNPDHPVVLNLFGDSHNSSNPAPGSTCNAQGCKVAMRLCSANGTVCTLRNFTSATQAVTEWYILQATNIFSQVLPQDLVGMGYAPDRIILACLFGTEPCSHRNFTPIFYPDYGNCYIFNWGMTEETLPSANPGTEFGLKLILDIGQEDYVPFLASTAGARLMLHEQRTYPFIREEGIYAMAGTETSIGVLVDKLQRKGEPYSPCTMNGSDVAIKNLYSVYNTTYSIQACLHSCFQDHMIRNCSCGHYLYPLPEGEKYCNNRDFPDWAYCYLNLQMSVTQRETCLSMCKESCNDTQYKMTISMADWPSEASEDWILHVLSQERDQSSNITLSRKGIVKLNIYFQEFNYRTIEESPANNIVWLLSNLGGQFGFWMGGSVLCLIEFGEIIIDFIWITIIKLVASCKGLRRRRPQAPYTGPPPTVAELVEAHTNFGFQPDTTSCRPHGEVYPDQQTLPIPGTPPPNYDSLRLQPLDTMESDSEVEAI
Sequence (Q9WU39 whole entry): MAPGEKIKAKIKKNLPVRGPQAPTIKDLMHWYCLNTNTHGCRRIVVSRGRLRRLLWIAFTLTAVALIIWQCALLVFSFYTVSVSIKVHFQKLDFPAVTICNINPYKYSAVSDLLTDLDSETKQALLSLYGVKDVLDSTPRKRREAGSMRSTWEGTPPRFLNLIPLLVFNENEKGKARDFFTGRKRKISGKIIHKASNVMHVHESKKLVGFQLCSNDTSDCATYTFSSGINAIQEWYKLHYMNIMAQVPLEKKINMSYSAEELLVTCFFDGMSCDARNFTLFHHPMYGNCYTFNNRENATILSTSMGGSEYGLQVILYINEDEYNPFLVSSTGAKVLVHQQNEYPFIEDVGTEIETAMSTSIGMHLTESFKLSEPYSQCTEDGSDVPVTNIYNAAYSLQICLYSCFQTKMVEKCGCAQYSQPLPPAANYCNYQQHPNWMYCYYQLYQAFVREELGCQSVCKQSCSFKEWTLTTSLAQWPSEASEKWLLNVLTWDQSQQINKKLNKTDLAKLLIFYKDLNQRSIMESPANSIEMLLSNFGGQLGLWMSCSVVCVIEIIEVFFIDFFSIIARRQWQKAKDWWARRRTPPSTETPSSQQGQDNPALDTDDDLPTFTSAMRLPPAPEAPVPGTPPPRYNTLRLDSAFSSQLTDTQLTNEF
measurement-protocol: Ussing Chamber assay (short circuit current, amiloride sensitive I_SC) in M-1 cells
experimental-setup: Mouse kidney M-1 cells, apical application, 37° C.
pIC50: −log10 of the molar value.
A collection of compounds and their measured pIC50
readout-name: pIC50

>>> print(df.to_string())
                                 smiles_str  readout_name  quantitative_result
0  CCNC(=O)c1cc2c(cc1OCC(=O)NC1CCNCC1)n(CC)c(CNC(=O)c1nc(Cl)c(N)nc1N)[n+]2CC         pIC50                 9.00
1  CCn1c(CNC(=O)c2nc(Cl)c(N)nc2N)[n+](CC)c2ccc(OCC(=O)NCCN)cc21         pIC50                 9.00
2  CC[n+]1c(CNC(=O)c2nc(Cl)c(N)nc2N)n(CC2CC2)c2cc(OCC(=O)N(C)Cc3nc(C)ccc3O)ccc21         pIC50                 9.00
3  CCOc1cc2c(cc1C(=O)N1CCN(C(=O)c3cncc(O)c3)CC1)[n+](CC)c(CNC(=O)c1nc(Cl)c(N)nc1N)n2CC         pIC50                 8.70
4  CCn1c(CNC(=O)c2nc(Cl)c(N)nc2N)[n+](CC)c2cc(C(=O)N3CCOCC3)c(N3CCOCC3)cc21         pIC50                 8.52
5  CCn1c(CNC(=O)c2nc(Cl)c(N)nc2N)[n+](CC)c2cc(C(=O)NC3CCN(C(=O)OC(C)(C)C)CC3)c(OCC(=O)OC(C)(C)C)cc21         pIC50                 8.05
6  CCOc1cc2c(cc1C(=O)N1CCN(C(=O)OC(C)(C)C)CC1)[n+](CC)c(CNC(=O)c1nc(Cl)c(N)nc1N)n2CC         pIC50                 8.15
